Molecular target: UniProtKB O15379
Sequence (O15379 whole entry): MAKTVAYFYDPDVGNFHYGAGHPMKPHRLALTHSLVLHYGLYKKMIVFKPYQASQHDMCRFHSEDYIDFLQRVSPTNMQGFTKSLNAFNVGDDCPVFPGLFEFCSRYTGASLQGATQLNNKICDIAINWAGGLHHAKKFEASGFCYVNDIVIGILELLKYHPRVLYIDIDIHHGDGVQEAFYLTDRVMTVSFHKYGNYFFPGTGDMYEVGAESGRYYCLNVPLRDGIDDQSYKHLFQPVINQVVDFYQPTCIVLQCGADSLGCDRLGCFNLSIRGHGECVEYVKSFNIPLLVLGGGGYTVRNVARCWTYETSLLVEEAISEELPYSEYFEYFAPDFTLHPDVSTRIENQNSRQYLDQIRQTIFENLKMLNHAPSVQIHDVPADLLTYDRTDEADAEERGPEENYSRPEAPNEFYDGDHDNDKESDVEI
Test: Inhibition of recombinant human HDAC3 using Ac-GAK(Ac)-AMC as substrate preincubated for 10 mins followed by substrate addition and measured after 30 mins by fluorescence-based assay
pIC50: −log10 of the molar value.
readoutKind: pIC50

P: O=C(NO)c1ccc(CN2CCCc3cc(Cl)ccc32)cc1
Q: NC(=O)c1ccc2c(c1)CCCN2Cc1ccc(C(=O)NO)cc1
## Task Between these two entries, P and Q , state which has the higher pIC50. # answer = label of selected item
## Result Q
(Q: 6.63, P: 5.90)

###

Experiment: Half life in human liver s9 fraction
Assay type: ADME, subcellular
readoutKind: half-life

## Task For the molecule `NC(=O)c1ccc2c(c1)CCCN2Cc1ccc(C(=O)NO)cc1` , report half-life.
## Result > 16.7 h

###

Experiment: Stability in human pooled liver microsomes assessed as parent compound remaining measured at 60 mins in presence of NADPH by LC-MS/MS analysis
Format: ADME, Microsome
Details: pooled liver microsomes, read-out: Stabilty
readoutKind: remaining at 1 h (%)

Would you please look over these solved cases?
## Task Identify remaining at 1 h associated with the compound `O=C(NO)c1ccc(CN2CCCCc3cc(Cl)ccc32)cc1`
## Result 83.9

## Task Respond only with remaining at 1 h recorded for `O=C(NO)c1ccc(CN2CCCc3ccccc32)cc1`
## Result 73

## Task Recall and state the measured remaining at 1 h for `N#Cc1ccc2c(c1)CCCCN2Cc1ccc(C(=O)NO)cc1` .
## Result 84.9

## Task Tell us which remaining at 1 h value is on record for `NC(=O)c1ccc2c(c1)CCCN2Cc1ccc(C(=O)NO)cc1`
## Result 76.3

## Task Return reported remaining at 1 h. Input compound: `O=C(NO)c1ccc(CN2C(=O)CCCc3cc(Cl)ccc32)cc1`
## Result 95.3

1: O=C(NO)c1ccc(CN2CCCCc3cc(-c4cc[nH]n4)ccc32)cc1
2: O=C(NO)c1ccc(CN2C(=O)CCc3cc(Cl)ccc32)cc1
## Task Task for the reader: decide whether 1 or 2 has the larger remaining at 1 h. // output: label of the selected item
## Result 2

###

Assay: Half life in hepatocytes
Assay type: ADME, cell-based, Hepatocyte
readoutKind: half-life

## Task // fetch half-life given entry `O=C(NO)c1ccc(CN2CCCc3cc(Cl)ccc32)cc1`
## Result < 30 min

###

Experiment: Half life in human pooled liver microsomes assessed as parent compound remaining measured up to 60 mins in presence of NADPH by LC-MS/MS analysis
Format: ADME, Microsome
Settings: pooled liver microsomes
readoutKind: half-life (h)

Record excerpt, results attached:
## Task Hello, please tell me recorded half-life for this one: `O=C(NO)c1ccc(CN2CCCCc3ccccc32)cc1`
## Result 4.03

## Task Please report the measured half-life for `N#Cc1ccc2c(c1)CCCCN2Cc1ccc(C(=O)NO)cc1`
## Result 4.21

## Task Please look at this molecule and report its half-life: `O=C(NO)c1ccc(CN2CCCCc3cc(Cl)ccc32)cc1`
## Result 35.5

A: NC(=O)c1ccc2c(c1)CCCN2Cc1ccc(C(=O)NO)cc1
B: O=C(NO)c1ccc(CN2C(=O)CCc3cc(Cl)ccc32)cc1
## Task Out of A and B , name the one with the higher half-life. # answer = label of selected item
## Result B
(B: 9.62 h, A: 2.89 h)

A: O=C(NO)c1ccc(CN2CCCCc3cc(-c4cc[nH]n4)ccc32)cc1
B: O=C(NO)c1ccc(CN2CCCc3ccccc32)cc1
## Task Among A and B , which shows a numerically higher half-life result? Give the chosen item's label as your response.
## Result B
(B: 3.02 h, A: 0.37 h)
